Source of measurements: patent US20170209448A1

// IC50 collected for UniProt:P42345
Sequence (P42345 1360-2549 limits assumed): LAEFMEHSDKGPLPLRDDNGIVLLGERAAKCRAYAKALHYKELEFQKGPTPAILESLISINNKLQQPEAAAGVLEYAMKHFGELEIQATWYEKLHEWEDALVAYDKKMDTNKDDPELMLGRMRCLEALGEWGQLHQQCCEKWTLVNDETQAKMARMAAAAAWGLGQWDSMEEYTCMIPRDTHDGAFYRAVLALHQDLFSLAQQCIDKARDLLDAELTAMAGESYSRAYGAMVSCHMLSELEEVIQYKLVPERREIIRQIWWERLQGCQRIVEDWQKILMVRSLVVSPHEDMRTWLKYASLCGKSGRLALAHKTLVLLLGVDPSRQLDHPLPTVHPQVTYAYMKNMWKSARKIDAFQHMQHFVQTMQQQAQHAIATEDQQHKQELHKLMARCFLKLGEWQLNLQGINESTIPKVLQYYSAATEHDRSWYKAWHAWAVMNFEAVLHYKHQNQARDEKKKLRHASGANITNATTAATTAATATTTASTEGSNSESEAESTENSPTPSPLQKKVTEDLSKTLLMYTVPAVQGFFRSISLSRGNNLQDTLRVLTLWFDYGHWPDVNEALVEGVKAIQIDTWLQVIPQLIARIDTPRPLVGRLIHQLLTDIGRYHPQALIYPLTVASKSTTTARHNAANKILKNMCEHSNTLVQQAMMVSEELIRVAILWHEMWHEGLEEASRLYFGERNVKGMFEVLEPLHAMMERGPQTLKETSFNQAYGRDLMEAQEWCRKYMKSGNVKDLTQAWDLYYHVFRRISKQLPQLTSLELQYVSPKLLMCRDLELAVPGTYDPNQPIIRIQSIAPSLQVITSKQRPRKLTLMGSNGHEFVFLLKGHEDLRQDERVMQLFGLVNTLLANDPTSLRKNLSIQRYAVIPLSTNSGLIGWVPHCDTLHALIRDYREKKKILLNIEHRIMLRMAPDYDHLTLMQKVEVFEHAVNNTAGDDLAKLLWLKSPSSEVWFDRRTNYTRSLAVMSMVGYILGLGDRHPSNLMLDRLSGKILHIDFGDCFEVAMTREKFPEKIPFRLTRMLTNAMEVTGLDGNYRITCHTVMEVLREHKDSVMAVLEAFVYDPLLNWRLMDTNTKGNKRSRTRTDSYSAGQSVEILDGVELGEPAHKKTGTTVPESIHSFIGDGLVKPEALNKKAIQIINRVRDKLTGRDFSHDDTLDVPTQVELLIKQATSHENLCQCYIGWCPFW
attribute.measured: IC50

# compound, test.value
records = [
    ("Nc1ncnc2c1c(-c1cc3cc(O)ccc3[nH]1)nn2C1CC(O)C1 (centres unmarked)", "< 25 nM"),
    ("COCCn1nc(-c2cc3cc(O)ccc3[nH]2)c2c(N)ncnc21", "< 100 nM"),
    ("CC(=O)N1CCC(n2nc(-c3cc4cc(O)ccc4[nH]3)c3c(N)ncnc32)CC1", "< 25 nM"),
    ("CC(C)n1nc(-c2cc3cccc(Cl)c3[nH]2)c2c(N)ncnc21", "< 50 nM"),
    ("Nc1ncnc2c1c(-c1cc3cc(O)ccc3[nH]1)nn2C1CC(N2CCOCC2)C1 (centres unmarked)", "< 10 nM"),
]

* * *

The following molecules each carry a recorded IC50 for UniProt P42345.

# molecule, target.or.system, IC50
data = [
    ("Nc1ncnc2c1c(-c1cc3cc(O)ccc3[nH]1)nn2Cc1cccnc1", "UniProt P42345", "< 500 nM"),
    ("CN1CCN(C2CC(n3nc(-c4cc5cc(O)ccc5[nH]4)c4c(N)ncnc43)C2)CC1 (stereo not drawn)", "UniProt P42345", "< 500 nM"),
    ("CC(C)n1nc(-c2cc3ccccc3[nH]2)c2c(N)ncnc21", "UniProt P42345", "< 100 nM"),
    ("CC(C)n1nc(-c2cc3c(Cl)cccc3[nH]2)c2c(N)ncnc21", "UniProt P42345", "< 50 nM"),
    ("Nc1ncnc2c1c(-c1cc3cc(O)ccc3[nH]1)nn2C1CCN(C(=O)C2CC2)CC1", "UniProt P42345", "< 25 nM"),
    ("Nc1ncnc2c1c(-c1cc3cc(O)ccc3[nH]1)nn2C1CCC1", "UniProt P42345", "< 25 nM"),
    ("COc1ccc(Cl)c2cc(-c3nn(C4CCOCC4)c4ncnc(N)c34)[nH]c12", "UniProt P42345", "< 25 nM"),
    ("CCOC(=O)Cn1nc(-c2cc3cc(O)ccc3[nH]2)c2c(N)ncnc21", "UniProt P42345", "< 500 nM"),
    ("CC(C)N1CCC(n2nc(-c3cc4c(Cl)ccc(O)c4[nH]3)c3c(N)ncnc32)CC1", "UniProt P42345", "< 100 nM"),
    ("COc1cccc2cc(-c3nn(C(C)C)c4ncnc(N)c34)[nH]c12", "UniProt P42345", "< 25 nM"),
    ("Nc1ncnc2c1c(-c1cc3cccc(Cl)c3[nH]1)nn2C1CCOCC1", "UniProt P42345", "< 50 nM"),
    ("CC(C)N1CCC(n2nc(-c3cc4cc(O)ccc4[nH]3)c3c(N)ncnc32)CC1", "UniProt P42345", "< 500 nM"),
    ("Nc1ncnc2c1c(-c1cc3cccc(O)c3[nH]1)nn2C1CCCC1", "UniProt P42345", "< 10 nM"),
    ("Nc1ncnc2c1c(-c1cc3cc(O)ccc3[nH]1)nn2C1CCCCC1", "UniProt P42345", "< 10 nM"),
    ("CC(C)n1nc(-c2cc3cc(F)ccc3[nH]2)c2c(N)ncnc21", "UniProt P42345", "< 500 nM"),
    ("Nc1ncnc2c1c(-c1cc3cccc(O)c3[nH]1)nn2C1CCN(C(=O)C2CC2)CC1", "UniProt P42345", "< 10 nM"),
    ("Nc1ncnc2c1c(-c1cc3cc(O)ccc3[nH]1)nn2C1CCC(N2CCOCC2)CC1 (stereo not drawn)", "UniProt P42345", "< 25 nM"),
    ("Nc1ncnc2c1c(-c1cc3cc(O)ccc3[nH]1)nn2CCN1CCOCC1", "UniProt P42345", "< 500 nM"),
]
